test: Half life in rat following administration of 10 mg/kg, p.o. and 10 mg/kg i.v.; type: ADME, organism-based; conditions: in vivo
measurementLabel: half-life (min)
Give the value in min but do not write min after it.

*Q* Give half-life for "CCCC(CCC)N1CCc2cn(-c3ccc(C)cc3Cl)c3nc(C)cc1c23"
*A* 378

###

test: Volume of distribution in rat following administration of 2 mg/kg, p.o. and 1 mg/kg, i.v.; format: ADME, organism-based; settings: in vivo, iv
Assign Vd to each entry below.
Hey, just the number and the unit after it is fine.

*Q* Give Vd for "CCC(CC)N1CCc2cn(-c3ccc(OC(F)(F)F)cc3C)c3nc(C)cc1c23"
*A* 80 L/kg

*Q* Give Vd for CCC(COC)N1CCc2cn(-c3c(C)cc(Cl)cc3C)c3nc(C)cc1c23 (configuration not stated)
*A* 19 L/kg
